- measuredOn: T1, hGCGR-hFc (human)
- T1 construct: also called REGN316
- assayDetails: SPR Biacore T100, 37C, mAb captured, antigen flowed

- binder: "H4H1321P (antibody, V domains shown, Fully human anti-GCGR antibody; the controls are called isotype-matched hIgG4) VH: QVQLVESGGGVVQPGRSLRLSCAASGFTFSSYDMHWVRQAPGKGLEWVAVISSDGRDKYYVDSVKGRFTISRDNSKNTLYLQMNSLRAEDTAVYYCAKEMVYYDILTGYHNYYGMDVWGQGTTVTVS VL: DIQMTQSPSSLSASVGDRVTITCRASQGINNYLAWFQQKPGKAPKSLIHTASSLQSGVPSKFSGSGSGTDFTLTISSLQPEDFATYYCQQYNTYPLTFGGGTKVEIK"
  kon [M⁻¹ s⁻¹]: "1.41e+06"
- binder: "H4H1765N (antibody, V domains shown, Anti-GCGR antibody from hybridoma; the controls are called isotype-matched hIgG4) VH: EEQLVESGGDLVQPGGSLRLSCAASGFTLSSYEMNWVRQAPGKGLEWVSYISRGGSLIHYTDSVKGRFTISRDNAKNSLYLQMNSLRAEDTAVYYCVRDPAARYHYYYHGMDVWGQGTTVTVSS VL: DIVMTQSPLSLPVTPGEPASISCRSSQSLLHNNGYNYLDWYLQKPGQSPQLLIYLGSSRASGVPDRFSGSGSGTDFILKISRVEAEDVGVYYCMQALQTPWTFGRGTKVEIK"
  kon [M⁻¹ s⁻¹]: 664000
- binder: "H4H1331P (antibody, V domains shown, Fully human anti-GCGR antibody; the controls are called isotype-matched hIgG4) VH: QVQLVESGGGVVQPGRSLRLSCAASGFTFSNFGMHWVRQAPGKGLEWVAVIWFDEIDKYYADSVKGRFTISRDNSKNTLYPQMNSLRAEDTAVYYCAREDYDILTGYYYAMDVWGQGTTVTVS VL: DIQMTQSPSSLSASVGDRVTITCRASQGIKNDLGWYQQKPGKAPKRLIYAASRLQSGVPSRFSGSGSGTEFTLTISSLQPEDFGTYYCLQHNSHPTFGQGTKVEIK"
  kon [M⁻¹ s⁻¹]: "1.17e+06"
- binder: "H4H1339P (antibody, V domains shown, Fully human anti-GCGR antibody; the controls are called isotype-matched hIgG4) VH: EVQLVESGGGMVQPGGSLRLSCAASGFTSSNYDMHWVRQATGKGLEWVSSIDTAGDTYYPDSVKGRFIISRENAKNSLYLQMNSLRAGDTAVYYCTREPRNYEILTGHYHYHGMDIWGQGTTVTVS VL: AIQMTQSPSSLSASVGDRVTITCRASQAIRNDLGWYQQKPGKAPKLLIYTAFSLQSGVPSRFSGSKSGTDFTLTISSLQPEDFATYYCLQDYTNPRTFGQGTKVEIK"
  kon [M⁻¹ s⁻¹]: "1.17e+06"
- binder: "H4H1328P (antibody, V domains shown, Fully human anti-GCGR antibody; the controls are called isotype-matched hIgG4) VH: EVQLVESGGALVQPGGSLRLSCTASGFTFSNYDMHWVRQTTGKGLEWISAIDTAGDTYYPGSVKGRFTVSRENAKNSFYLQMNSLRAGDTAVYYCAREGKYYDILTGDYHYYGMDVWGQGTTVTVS VL: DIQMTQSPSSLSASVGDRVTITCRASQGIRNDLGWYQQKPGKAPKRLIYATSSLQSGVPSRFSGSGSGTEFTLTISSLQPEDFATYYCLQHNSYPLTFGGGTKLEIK"
  kon [M⁻¹ s⁻¹]: "1.55e+06"
- binder: "H4H1327P (antibody, V domains shown, also called anti-GCGR (hIgG4) antibody designated H4H1327P) VH: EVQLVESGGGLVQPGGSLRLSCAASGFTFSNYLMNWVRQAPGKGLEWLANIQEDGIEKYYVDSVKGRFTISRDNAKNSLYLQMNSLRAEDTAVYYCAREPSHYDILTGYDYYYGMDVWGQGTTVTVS VL: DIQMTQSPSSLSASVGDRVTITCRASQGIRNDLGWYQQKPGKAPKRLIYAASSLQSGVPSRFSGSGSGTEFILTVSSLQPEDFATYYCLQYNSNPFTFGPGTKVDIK"
  kon [M⁻¹ s⁻¹]: "1.48e+06"
